Test System: Alpha-bungarotoxin (Bungarus multicinctus) (UniProt P60615)
Sequence (P60615 whole entry, looked up): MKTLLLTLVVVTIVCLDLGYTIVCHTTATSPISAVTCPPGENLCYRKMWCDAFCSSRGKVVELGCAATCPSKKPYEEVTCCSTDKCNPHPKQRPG
Experiment Description: alpha-bungarotoxin binders on microarray, profiling panel, artefact control for SMM control protein annotation, biochemical, small-molecule microarray, Alexa647 label, 635/667 nm fluorescence (AID 1117)
Test Conditions: alpha-BTX-A647 binding fluorescence, higher = more signal
Each entry belongs to exactly one class, chosen by where its composite z-score falls: class 1 = under -0.1, class 2 = from -0.1 up to 0.5, class 3 = 0.5 and over

Here are 5 compounds together with their reported answers.
| Compound | Label |
| --- | --- |
| COC(=O)[C@H](C)NC(=O)CCC1CC(OC(=O)NCc2cccc3ccccc23)CC2(CCCC(COC(=O)NCc3ccccc3)O2)O1 (some centres not stated) | class 2 |
| CC(CCN1CCc2nc(-c3ccccc3)c(-c3ccccc3)cc2C1)=NO[C@@H](C)c1cc(-c2c(C)cc(C)cc2C)no1 | class 3 |
| CCOC(=O)CCN1C(=O)[C@H]2[C@H]3[C@H](O)[C@H](O)CC(=NO[C@@H]4O[C@H](CO)[C@@H](O)[C@H](O)[C@H]4O)[C@H]3CC[C@H]2C1=O | class 2 |
| COC(=O)CC=C[C@@H](C)[C@@H](C=NOC[C@@H](O)[C@H]1O[C@@H]2OC(C)(C)O[C@@H]2[C@H]1O)OC | class 2 |
| CON=C(C)CCC(=O)OC[C@H]1O[C@H](C#Cc2ccccc2)C=C[C@@H]1Oc1ccc(C)cc1 | class 2 |

Task: Band for CC(CCN1CCc2nc(-c3ccccc3)c(-c3ccccc3)cc2C1)=NO[C@H](C)c1cn([C@H](CO)Cc2ccccc2)nn1 ?
Result: class 3

Task: Check CO[C@H]1COC(=O)CC=C[C@H](C)[C@H](OC)COC(=O)[C@@H](C)NC(=O)CC=C[C@@H]1C too.
Result: class 1

Task: Check CC(=O)OC[C@H]1O[C@@H](ON=C(C)C)[C@H](OC(C)=O)[C@@H](OC(C)=O)[C@@H]1OC(C)=O too.
Result: class 1

Task: Check COc1ccc(COC(=O)NN=C2C[C@@H](O)[C@@H](O)[C@@H]3[C@@H]4C(=O)N(Cc5ccccc5)C(=O)[C@@H]4CC[C@@H]23)cc1 too.
Result: class 1

Task: Check COC(=O)[C@H](C)NC(=O)CCC1CC(OC(=O)NCc2cccc3ccccc23)CC2(CCCC(COC(=O)NCc3cccc(C(F)(F)F)c3)O2)O1 (some centres not stated) too.
Result: class 2

Task: Check COC(=O)[C@@H]1CC[C@H](C)[C@@H](c2ccc(Br)cc2)N1C[C@@H](O)CN=[N+]=[N-] too.
Result: class 1
